Read-out record for Dipeptidyl peptidase 2 (Homo sapiens, UniProt Q9UHL4): pIC50
pIC50: −log10 of the molar value.
quantity.kind: pIC50

[[record]]
compound = "N[C@@H](Cc1ccccc1)C(=O)N1CCCC1"
qual = "="
reported_measurement = 4.10

[[record]]
compound = "N#C[C@@H]1CCCN1C(=O)[C@@H](N)CCCCNC(=O)OCc1ccccc1"
qual = "="
reported_measurement = 6.08

[[record]]
compound = "N#C[C@@H]1C[C@H](N=[N+]=[N-])CN1C(=O)[C@@H](N)CCCCN(c1ccc2ccccc2c1)c1ccc2ccccc2c1"
qual = "="
reported_measurement = 7.17

[[record]]
compound = "N[C@@H](CO)C(=O)N1CCCC1"
qual = "="
reported_measurement = 4.19

[[record]]
compound = "CC(C)C[C@H](N)C(=O)N1CCCC1"
qual = "="
reported_measurement = 3.91

[[record]]
compound = "N[C@@H](CCCCNC(=O)OCc1ccccc1)C(=O)N1CCSC1"
qual = "="
reported_measurement = 5.99

[[record]]
compound = "CC[C@H](C)[C@H](N)C(=O)N1CCC(F)C1 (some centres not stated)"
qual = "="
reported_measurement = 3.95

[[record]]
compound = "N=C(N)NCCC[C@H](N)C(=O)N1CCCC1"
qual = "="
reported_measurement = 5.51

[[record]]
compound = "N[C@@H](Cc1ccc(O)cc1)C(=O)N1CCCC1"
qual = "="
reported_measurement = 4.80

[[record]]
compound = "CC[C@H](C)[C@H](N)C(=O)NC1CCCC1"
qual = "<"
reported_measurement = 4.00

[[record]]
compound = "N#C[C@@H]1C[C@H](N=[N+]=[N-])CN1C(=O)[C@@H](N)CCCCN(c1cccc2ccccc12)c1cccc2ccccc12"
qual = "="
reported_measurement = 7.60

[[record]]
compound = "NC(=O)C[C@H](N)C(=O)N1CCCC1"
qual = "="
reported_measurement = 3.82


###

pIC50: −log10 of the molar value.
Read-out record for Dipeptidyl peptidase 8 (Homo sapiens, UniProt Q6V1X1): pIC50
quantity.kind: pIC50

[[record]]
compound = "CC[C@H](C)[C@H](N)C(=O)N1CCCCCC1"
experimental_system = "Dipeptidyl peptidase 8 (Homo sapiens, UniProt Q6V1X1)"
qual = "="
reported_measurement = 3.21

[[record]]
compound = "N[C@@H](CCC(=O)O)C(=O)N1CCCC1"
experimental_system = "Dipeptidyl peptidase 8 (Homo sapiens, UniProt Q6V1X1)"
qual = "<"
reported_measurement = 3.00

[[record]]
compound = "NCCCC[C@H](N)C(=O)N1CCCc2ccccc21"
experimental_system = "Dipeptidyl peptidase 8 (Homo sapiens, UniProt Q6V1X1)"
qual = "="
reported_measurement = 3.51

[[record]]
compound = "N[C@@H](Cc1ccccc1)C(=O)N1CCCC1"
experimental_system = "Dipeptidyl peptidase 8 (Homo sapiens, UniProt Q6V1X1)"
qual = "="
reported_measurement = 3.94

[[record]]
compound = "N[C@@H](CC(=O)O)C(=O)N1CCCC1"
experimental_system = "Dipeptidyl peptidase 8 (Homo sapiens, UniProt Q6V1X1)"
qual = "<"
reported_measurement = 3.00

[[record]]
compound = "N[C@@H](Cc1c[nH]c2ccccc12)C(=O)N1CCCC1"
experimental_system = "Dipeptidyl peptidase 8 (Homo sapiens, UniProt Q6V1X1)"
qual = "="
reported_measurement = 3.62

[[record]]
compound = "C[C@H](N)C(=O)N1CCCC1"
experimental_system = "Dipeptidyl peptidase 8 (Homo sapiens, UniProt Q6V1X1)"
qual = "="
reported_measurement = 3.39

